Measured Potency, listed per entry.
target: Glucocorticoid receptor (Homo sapiens) (UniProt P04150); experiment: GR-GFP Redistribution (AID 450); conditions: U2OS GR-GFP nuclear translocation, laser cytometry, 2 h; series mostly up to 20.6 µM; note: potency is the fitted concentration of half-maximal effect
Sequence (P04150 whole entry, looked up): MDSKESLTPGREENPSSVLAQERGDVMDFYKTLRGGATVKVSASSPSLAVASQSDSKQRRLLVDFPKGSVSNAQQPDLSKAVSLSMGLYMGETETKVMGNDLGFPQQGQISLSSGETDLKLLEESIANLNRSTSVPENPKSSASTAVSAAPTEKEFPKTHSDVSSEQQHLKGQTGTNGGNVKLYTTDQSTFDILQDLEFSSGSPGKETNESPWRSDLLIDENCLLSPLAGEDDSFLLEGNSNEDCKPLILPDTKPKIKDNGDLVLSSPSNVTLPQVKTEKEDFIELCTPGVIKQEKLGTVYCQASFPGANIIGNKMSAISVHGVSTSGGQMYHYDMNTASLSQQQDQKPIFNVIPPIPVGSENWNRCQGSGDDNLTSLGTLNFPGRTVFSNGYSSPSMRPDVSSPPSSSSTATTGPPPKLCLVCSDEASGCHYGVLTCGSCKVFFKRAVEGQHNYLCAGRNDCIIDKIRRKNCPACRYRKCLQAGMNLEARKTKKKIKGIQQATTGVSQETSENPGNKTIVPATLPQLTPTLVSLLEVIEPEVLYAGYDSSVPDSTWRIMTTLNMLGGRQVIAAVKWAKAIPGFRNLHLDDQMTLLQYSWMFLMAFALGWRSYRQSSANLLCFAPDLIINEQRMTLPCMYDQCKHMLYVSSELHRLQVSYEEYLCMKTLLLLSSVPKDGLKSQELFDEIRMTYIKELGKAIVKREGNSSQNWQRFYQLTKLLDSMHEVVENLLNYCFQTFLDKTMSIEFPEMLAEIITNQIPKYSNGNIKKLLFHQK
Activity calls are given as the source filed them.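 Rule for the calls: active = compounds whose dose series gives a full or clear partial fitted curve of increased nuclear translocation; inconclusive = weak partial curve or effect only at the top dose; inactive = no dose-dependent translocation response.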
ATTRIBUTE MEASURED: Potency

molecule=COc1cccc(-c2cc(=O)c3cc(O)ccc3o2)c1 attribute_measured=Potency result="> 46 µM (inactive)"
molecule=CCOc1cccc(-c2nn3c(-c4ccco4)nnc3s2)c1 attribute_measured=Potency result="> 20.6 µM (inactive)"
molecule=CCN1CCN(c2nc3c(C)cccn3c(=O)c2/C=C(\C#N)S(=O)(=O)c2ccccc2)CC1 attribute_measured=Potency result="> 20.6 µM (inactive)"
molecule=COc1ccc(OC)c([C@H]2Nc3ccccc3NC3=C2C(=O)CC(C)(C)C3)c1Br attribute_measured=Potency result="> 46 µM (inactive)"
molecule="COc1cccc(C2/C(=C(/O)c3cnn(-c4ccccc4)c3C)C(=O)C(=O)N2CCN(C)C)c1 (stereo not drawn)" attribute_measured=Potency result="> 20.6 µM (inactive)"
molecule=COc1ccc2nc(SCC(=O)O)nc(C)c2c1 attribute_measured=Potency result="> 20.6 µM (inactive)"
molecule="Cc1ccccc1N1C(=O)CC(Sc2nnc(-c3ccccc3)o2)C1=O (stereo not drawn)" attribute_measured=Potency result="> 20.6 µM (inactive)"
molecule=C=CCN=C(C)C1=C(O)CCC1=O attribute_measured=Potency result="> 20.6 µM (inactive)"
molecule=CN1CCc2cc(O)c(O)cc2[C@H](c2ccccc2)C1 attribute_measured=Potency result="> 46 µM (inactive)"
molecule=Cc1c(CCC#N)c(N2CCCCC2)n2c(nc3ccccc32)c1C#N attribute_measured=Potency result="> 20.6 µM (inactive)"
molecule=COC(=O)[C@@H](NC(=O)c1cc(-c2ccccc2)nc2ccccc12)c1ccccc1 attribute_measured=Potency result="> 46 µM (inactive)"
molecule="COCc1[nH]nc2c1C(c1sccc1C)C(C#N)=C(N)O2 (stereo not drawn)" attribute_measured=Potency result="> 20.6 µM (inactive)"
molecule=COCCNC(=O)c1c(N)n(CCC2=CCCCC2)c2nc3ccccc3nc12 attribute_measured=Potency result="> 20.6 µM (inactive)"
molecule=CCOc1ccc(N=C2C(=O)N(CN3CCOCC3)c3ccccc32)cc1 attribute_measured=Potency result="> 20.6 µM (inactive)"
molecule=CCCCc1nc(NCCN2CCOCC2)c(C#N)c2c1COC(C)(C)C2 attribute_measured=Potency result="> 20.6 µM (inactive)"
molecule=Cc1cc(C)n(C(=O)CNC(=O)CCc2ccccc2)n1 attribute_measured=Potency result="> 20.6 µM (inactive)"
molecule="CCCN(CCC)C(=O)CC(c1ccc(F)cc1)c1ccco1 (stereo not drawn)" attribute_measured=Potency result="> 20.6 µM (inactive)"
molecule="COc1ccc(C2C(C#N)=C(C)NC3=C2C(=O)c2ccccc23)cc1 (stereo not drawn)" attribute_measured=Potency result="> 20.6 µM (inactive)"
molecule="O=C1C2ON(c3ccccc3)C(c3cccnc3)C2C(=O)N1Cc1ccccc1 (stereo not drawn)" attribute_measured=Potency result="> 20.6 µM (inactive)"
molecule=CN(C)c1ccc(-c2nn3c(-c4ccc(Cl)cc4)nnc3s2)cc1 attribute_measured=Potency result="> 20.6 µM (inactive)"
molecule="CCCOc1ccc(N2C(=O)C3ON(c4ccccc4)C(c4ccc(O)c(OC)c4)C3C2=O)cc1 (stereo not drawn)" attribute_measured=Potency result="> 20.6 µM (inactive)"
molecule=CCc1nc(N2CCCC2)c(C#N)c2c1CCCC2 attribute_measured=Potency result="> 20.6 µM (inactive)"
molecule="CCOC(=O)C1CCCN(c2nc3ccccc3nc2C(C#N)C(=O)OC(C)COC)C1 (stereo not drawn)" attribute_measured=Potency result="> 20.6 µM (inactive)"
